Where these numbers come from: paper PMC9005681

# key: entry, value: Inhibition 1
subject.of.test: cloned human or rodent CNS receptors, channels, and transporters (PDSP panel) (Homo sapiens)
Construct: expressed in transfected cells
Sequence (P08908 1-422): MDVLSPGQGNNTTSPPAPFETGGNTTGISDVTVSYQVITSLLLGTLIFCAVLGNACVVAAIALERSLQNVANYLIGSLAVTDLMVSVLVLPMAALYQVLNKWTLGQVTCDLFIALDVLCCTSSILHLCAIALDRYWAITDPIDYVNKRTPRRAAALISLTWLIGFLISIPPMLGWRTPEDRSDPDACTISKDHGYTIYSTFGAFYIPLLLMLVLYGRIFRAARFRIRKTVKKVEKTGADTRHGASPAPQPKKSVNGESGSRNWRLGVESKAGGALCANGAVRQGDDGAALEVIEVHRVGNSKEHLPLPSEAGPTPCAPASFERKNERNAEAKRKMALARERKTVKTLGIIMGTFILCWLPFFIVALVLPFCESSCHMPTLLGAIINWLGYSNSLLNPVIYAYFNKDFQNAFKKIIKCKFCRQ
assay.name: PDSP GPCR panel primary binding assays at 10 μM
experimental.parameters: Receptor 5-HT1A; primary assay, 10 μM
The answer is to be given in %; state only the numeric part.

O=c1oc2ccccc2cc1-c1cn2cc(Cc3ccc(F)cc3)sc2n1 [UNC10302680A, iMDK]; 5.77
Cl.NC(=O)c1cnc(N[C@@H]2CCCC[C@@H]2N)nc1Nc1cccc(-n2nccn2)c1 [UNC10302682A, P505-15 (PRT06207 HCl)]; 35.42
c1cn2cc(-c3ccc4cn[nH]c4c3)nc(Nc3ccc(N4CCOCC4)cc3)c2n1 [UNC10302678A, Entospletinib (GS-9973)]; 14.91

Turning now to a further record.
// Inhibition 1 lookup, compound = CCCCNc1ncc2c(-c3ccc(CN4CCN(C)CC4)cc3)cn([C@H]3CC[C@H](O)CC3)c2n1 [UNC2025C, UNC2025] , result: 9.39

* * *

subject.of.test: cloned human or rodent CNS receptors, channels, and transporters (PDSP panel) (Homo sapiens, UniProt P25100)
Construct: expressed in transfected cells
Sequence (P25100 1-572): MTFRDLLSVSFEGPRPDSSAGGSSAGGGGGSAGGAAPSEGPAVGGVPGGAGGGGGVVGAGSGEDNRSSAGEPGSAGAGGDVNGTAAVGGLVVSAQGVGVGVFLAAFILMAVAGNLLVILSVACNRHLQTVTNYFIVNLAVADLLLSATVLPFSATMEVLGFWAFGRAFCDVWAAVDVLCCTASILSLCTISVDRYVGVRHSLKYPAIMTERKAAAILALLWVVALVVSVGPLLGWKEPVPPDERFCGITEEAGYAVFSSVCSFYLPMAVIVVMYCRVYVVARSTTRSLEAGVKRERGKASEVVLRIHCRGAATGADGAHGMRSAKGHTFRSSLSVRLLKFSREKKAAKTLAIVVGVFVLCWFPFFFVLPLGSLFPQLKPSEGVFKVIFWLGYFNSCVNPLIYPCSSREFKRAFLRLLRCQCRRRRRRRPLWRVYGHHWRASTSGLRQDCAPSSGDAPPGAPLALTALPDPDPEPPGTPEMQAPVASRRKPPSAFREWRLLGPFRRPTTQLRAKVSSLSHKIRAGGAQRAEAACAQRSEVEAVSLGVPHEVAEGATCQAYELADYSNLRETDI
assay.name: PDSP GPCR panel primary binding assays at 10 μM
experimental.parameters: Receptor Alpha1D; primary assay, 10 μM; mean of Inhibition 1-4
property: Mean % (%)
The answer is to be given in %; state only the numeric part.

Before answering, review these 2 worked examples.
CCCCNc1ncc2c(-c3ccc(CN4CCN(C)CC4)cc3)cn([C@H]3CC[C@H](O)CC3)c2n1 [UNC2025C, UNC2025]; 50.34
c1cn2cc(-c3ccc4cn[nH]c4c3)nc(Nc3ccc(N4CCOCC4)cc3)c2n1 [UNC10302678A, Entospletinib (GS-9973)]; -11.16

// Mean % lookup, compound = O=c1oc2ccccc2cc1-c1cn2cc(Cc3ccc(F)cc3)sc2n1 [UNC10302680A, iMDK] , result: -11.37

// Mean % lookup, compound = Cl.NC(=O)c1cnc(N[C@@H]2CCCC[C@@H]2N)nc1Nc1cccc(-n2nccn2)c1 [UNC10302682A, P505-15 (PRT06207 HCl)] , result: 17.73
